IC50 (µg/mL), pseudovirus neutralization values for the binders below.
biological target: HIV-1 Env of isolate MGRM-A-003 (pseudovirus) (HIV-1); test: cell-based or functional assay

Observe how each entry below is paired with its result.
binder	IC50 (µg/mL), pseudovirus neutralization
PGT-125 (5123_A06) (antibody, V domains shown) VH: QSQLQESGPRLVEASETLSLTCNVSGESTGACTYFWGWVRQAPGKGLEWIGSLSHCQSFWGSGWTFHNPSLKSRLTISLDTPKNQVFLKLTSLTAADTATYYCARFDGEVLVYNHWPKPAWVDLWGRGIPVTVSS VL: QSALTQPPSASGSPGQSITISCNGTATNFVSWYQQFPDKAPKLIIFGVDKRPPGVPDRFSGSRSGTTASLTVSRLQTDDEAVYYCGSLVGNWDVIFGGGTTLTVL	> 50 µg/mL
PGT-127 (5145_B14) (antibody, V domains shown) VH: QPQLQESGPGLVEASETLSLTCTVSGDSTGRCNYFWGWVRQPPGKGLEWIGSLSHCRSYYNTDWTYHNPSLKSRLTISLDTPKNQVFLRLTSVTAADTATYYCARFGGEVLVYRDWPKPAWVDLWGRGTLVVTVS VL: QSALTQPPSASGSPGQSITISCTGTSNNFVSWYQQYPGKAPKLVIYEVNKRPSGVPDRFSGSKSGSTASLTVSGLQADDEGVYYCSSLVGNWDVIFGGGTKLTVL	> 50 µg/mL
PGT-123 (4858_P08) (antibody, V domains shown) VH: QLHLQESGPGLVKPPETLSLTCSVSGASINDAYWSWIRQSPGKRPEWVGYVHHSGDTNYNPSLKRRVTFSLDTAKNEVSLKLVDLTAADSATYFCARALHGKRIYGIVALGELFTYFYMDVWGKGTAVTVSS VL: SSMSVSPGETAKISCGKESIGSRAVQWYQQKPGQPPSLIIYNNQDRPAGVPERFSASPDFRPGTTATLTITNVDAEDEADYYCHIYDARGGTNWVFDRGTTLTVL	0.495 µg/mL

Form field IC50 (µg/mL), pseudovirus neutralization, entry PGT-126 (5141_B17) (antibody, V domains shown) VH: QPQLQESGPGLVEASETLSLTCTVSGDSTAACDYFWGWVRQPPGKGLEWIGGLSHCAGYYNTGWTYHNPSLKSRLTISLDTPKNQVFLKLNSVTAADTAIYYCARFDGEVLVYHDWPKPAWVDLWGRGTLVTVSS VL: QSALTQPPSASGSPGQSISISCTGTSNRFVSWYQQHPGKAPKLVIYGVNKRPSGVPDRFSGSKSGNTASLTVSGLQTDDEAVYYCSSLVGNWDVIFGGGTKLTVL : > 50 µg/mL
